Target: T1, DLL3 target antigen coated on Octet SA tips (binning experiment) (Homo sapiens (Human), UniProt Q9NYJ7 27-492, Probably biotinylated for capture on streptavidin (SA) tips. The site is not stated.)
T1 sequence: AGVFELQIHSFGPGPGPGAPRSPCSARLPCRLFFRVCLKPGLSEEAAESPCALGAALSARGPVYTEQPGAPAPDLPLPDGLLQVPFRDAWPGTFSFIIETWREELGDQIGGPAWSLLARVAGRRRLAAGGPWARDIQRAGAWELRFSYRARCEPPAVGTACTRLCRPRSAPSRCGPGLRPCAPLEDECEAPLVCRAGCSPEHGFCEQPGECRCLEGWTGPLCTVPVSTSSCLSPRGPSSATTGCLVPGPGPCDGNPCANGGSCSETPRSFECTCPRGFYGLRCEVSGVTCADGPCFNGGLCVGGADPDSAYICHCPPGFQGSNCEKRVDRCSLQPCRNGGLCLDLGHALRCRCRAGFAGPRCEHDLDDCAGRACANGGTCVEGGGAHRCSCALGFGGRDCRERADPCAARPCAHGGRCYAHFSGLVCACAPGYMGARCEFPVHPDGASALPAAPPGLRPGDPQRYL
Experiment: Octet binning on DLL3-coated SA tips; competitor: 2HCE27
QUANTITY: binning response (unit not given)
// print number alone

Worked set:
[Q] Looking for the measured binning response (unit not given) of anti-human DLL3 BiTE (bispecific antibody, also called DLL3 BiTEs) QVQLQESGPGLVKPSETLSLTCTVSGGSISSYYWSWIRQPPGKGLEWIGYVYYSGTTNYNPSLKSRVTISVDTSKNQFSLKLSSVTAADTAVYYCASIAVTGFYFDYWGQGTLVTVSSGGGGSGGGGSGGGGSEIVLTQSPGTLSLSPGERVTLSCRASQRVNNNYLAWYQQRPGQAPRLLIYGASSRATGIPDRFSGSGSGTDFTLTISRLEPEDFAVYYCQQYDRSPLTFGGGTKLEIK , can you help?
[A] 82.5

[Q] Looking for the measured binning response (unit not given) of 3HCE56 anti-DLL3 VHH (VHH, In the binning assay it was used as a periplasmic extract) VHH: QVQLQESGGGLVQAGGSLRLSCAASGRTFSVDAMGWLRQAPGKEREFVVVIDWTGGSTAYADSVKGRFTISRDNARNTVYLQMNNLKPEDTGVYYCAARERSRTAYDYWGQGTQVTVSS , can you help?
[A] -3.58

# context switch: different binder, same binning response (unit not given)
[Q] Looking for the measured binning response (unit not given) of 3HCE87 anti-DLL3 VHH (VHH, In the binning assay it was used as a periplasmic extract) VHH: QVQLQESGGGLVQAGGSLRLSCAASGFIFDDYIIGWFRQAPGKEREFVAAISWSGSATAYADSVKGRFTISRDNAKNTLYLQMNTLKPEDTAVYYCAASSRGPYNSGSSYDYWGQGTQVTVSS , can you help?
[A] -48.2
